This listing pairs molecules with measured hα2B pIC50.
target: hα2B receptor (Homo sapiens, UniProt P18089); construct: expressed in transfected cells; assay: Radioligand binding experiment for hα2B receptor ([3H]-raulwolscine); conditions: membranes of CHO cells expressing human α2B receptor; [3H]raulwolscine 1 nM
Sequence (P18089 whole entry): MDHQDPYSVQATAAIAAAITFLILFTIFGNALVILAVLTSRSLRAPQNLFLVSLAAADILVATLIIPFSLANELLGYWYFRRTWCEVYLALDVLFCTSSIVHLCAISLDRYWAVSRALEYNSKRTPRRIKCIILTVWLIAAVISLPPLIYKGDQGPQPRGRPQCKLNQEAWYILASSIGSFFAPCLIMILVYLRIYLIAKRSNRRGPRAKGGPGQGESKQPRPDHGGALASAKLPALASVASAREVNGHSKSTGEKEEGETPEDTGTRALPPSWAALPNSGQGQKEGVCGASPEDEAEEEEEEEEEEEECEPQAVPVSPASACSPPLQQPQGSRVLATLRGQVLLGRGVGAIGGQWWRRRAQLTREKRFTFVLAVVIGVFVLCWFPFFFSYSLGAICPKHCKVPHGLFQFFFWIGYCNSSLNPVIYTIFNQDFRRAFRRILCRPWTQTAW
attribute_measured: hα2B pIC50

> print(dat)
                                   molecule  attribute.measured  test.result
1  C=CC(=O)Oc1ccc2c(c1)OCC1C2=NOC1CN1CCN(CC(C)=Cc2ccccc2)CC1 (stereo not shown)          hα2B pIC50         8.31
2  CN1CC2C(=NOC2CN2CCN(Cc3ccc4ccccc4c3)CC2)c2ccccc21 (stereo not shown)          hα2B pIC50         7.80
3  COc1cc2c(cc1OC)C1=NOC(CN(C)C3CCN(Cc4ccc5ccccc5c4)CC3)C1CO2 (racemic)          hα2B pIC50         7.19
4  COc1cc2c(cc1OC)C1=NOC(CN3CCN(CC(C)=Cc4ccccc4)CC3)C1CN2 (single isomer, unassigned)          hα2B pIC50         7.94

* * *

target: hα2B receptor (Homo sapiens, UniProt P18089); construct: expressed in transfected cells; experiment: Radioligand binding experiment for hα2B receptor ([3H]-raulwolscine); conditions: membranes of CHO cells expressing human α2B receptor; [3H]raulwolscine 1 nM; read-out: hα2B pIC50 (converted)
attribute_measured: IC50

> print(dat)
                                   molecule                               system.name  attribute.measured  test.result
1  COc1cc2c(cc1OC)C1=NOC(CN3CCN(Cc4cccc(F)c4)CC3)C1CO2 (centres unmarked)  hα2B receptor (Homo sapiens, UniProt P18089)                IC50       575 nM
2  COc1cc2c(cc1OC)C1=NOC(CN3CCN(Cc4ccc5cc(C)ccc5c4)CC3)C1CO2 (centres unmarked)  hα2B receptor (Homo sapiens, UniProt P18089)                IC50       178 nM
3  Oc1ccc2c(c1)OCC1C2=NOC1CN1CCN(Cc2ccc3ccccc3c2)CC1 (centres unmarked)  hα2B receptor (Homo sapiens, UniProt P18089)                IC50       5.5 nM
4  COc1cc2c(cc1OC)C1=NOC(CN3CCN(CC=Cc4ccc5c(c4)CCO5)CC3)C1CO2 (centres unmarked)  hα2B receptor (Homo sapiens, UniProt P18089)                IC50       141 nM
5  COc1cc2c(cc1OC)C1=NOC(CN3CCN(CCOc4ccc(F)cc4)CC3)C1CO2 (centres unmarked)  hα2B receptor (Homo sapiens, UniProt P18089)                IC50      5.75 nM
6  COc1ccccc1C=C(C)CN1CCN(CC2ON=C3c4cc(OC)c(OC)cc4OCC32)CC1 (centres unmarked)  hα2B receptor (Homo sapiens, UniProt P18089)                IC50      3.24 nM
7  COc1ccc2c(c1)CCC1C2=NOC1CN1CCN(CC=Cc2ccccc2)CC1 (centres unmarked)  hα2B receptor (Homo sapiens, UniProt P18089)                IC50      14.1 nM
8  CC(=Cc1ccccc1)CN1CCN(CC2ON=C3c4ccc(OCCN(C)C)cc4OCC32)CC1 (centres unmarked)  hα2B receptor (Homo sapiens, UniProt P18089)                IC50     0.363 nM

* * *

target: h5-HT transporter (Homo sapiens); construct: Human platelet membranes (Oceanix Biosciences Corporation, Hanover, Md., USA) were thawed; tissue Oceanix Biosciences Corporation, Hanover, Md., USA; host or cells: human platelet membranes; experiment: Radioligand binding experiment for 5-HT transporter ([3H]paroxetine, human platelet membranes); conditions: human platelet membranes; [3H]paroxetine 0.5 nM; read-out: 5HTT pIC50 (converted)
Sequence (P31645 whole entry): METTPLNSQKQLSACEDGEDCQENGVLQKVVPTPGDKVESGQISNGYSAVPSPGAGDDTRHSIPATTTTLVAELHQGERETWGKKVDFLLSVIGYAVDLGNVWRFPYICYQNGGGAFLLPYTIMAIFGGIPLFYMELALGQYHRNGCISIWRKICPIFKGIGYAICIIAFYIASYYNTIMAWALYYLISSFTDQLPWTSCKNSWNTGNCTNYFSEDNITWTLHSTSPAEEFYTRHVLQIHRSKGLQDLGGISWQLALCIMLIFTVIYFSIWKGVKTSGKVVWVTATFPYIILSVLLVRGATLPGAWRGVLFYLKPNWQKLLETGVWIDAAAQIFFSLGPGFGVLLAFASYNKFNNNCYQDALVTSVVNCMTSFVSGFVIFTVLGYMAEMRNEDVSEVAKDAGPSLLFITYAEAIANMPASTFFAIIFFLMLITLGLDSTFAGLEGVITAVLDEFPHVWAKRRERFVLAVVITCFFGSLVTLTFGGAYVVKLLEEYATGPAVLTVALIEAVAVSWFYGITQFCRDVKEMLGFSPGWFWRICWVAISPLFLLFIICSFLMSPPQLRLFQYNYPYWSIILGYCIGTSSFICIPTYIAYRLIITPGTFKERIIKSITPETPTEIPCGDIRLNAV
This listing pairs compounds with measured log10 of IC50.
attribute_measured: log10 of IC50 (log10 of the value in nM)

> print(dat)
                                   compound  attribute.measured  test.result
1  CC(=Cc1ccccc1)CN1CCN(CC2ON=C3c4ccc(OC(=O)C5CC5)cc4OCC32)CC1 (centres unmarked)       log10 of IC50         1.91
2  COc1cc2c(cc1OC)C1=NOC(CN3CCN(Cc4ccc5cc(F)ccc5c4)CC3)C1CO2 (centres unmarked)       log10 of IC50         0.20
3  COCCOCOc1cc2c(cc1OC)C1=NOC(CN3CCN(C/C(C)=C/c4ccccc4)CC3)C1CO2 (single isomer, unassigned)       log10 of IC50         1.24
4  CC(=Cc1ccccc1)CN1CCN(CC2ON=C3c4ccc(O)cc4OCC32)CC1 (centres unmarked)       log10 of IC50         1.06
5  COc1cc2c(cc1OC)C1=NOC(CN3CCN(Cc4cccc(F)c4)CC3)C1CO2 (centres unmarked)       log10 of IC50         2.41
6  COc1cc2c(cc1OC)C1=NOC(CN3CCN(Cc4ccoc4)CC3)C1CO2 (centres unmarked)       log10 of IC50         2.94
7  COc1cc2c(cc1OC)C1=NOC(CN3CCN(Cc4ccsc4)CC3)C1CO2 (centres unmarked)       log10 of IC50         2.86
8  C(=Cc1ccccc1)CN1CCN(CC2ON=C3c4ccccc4CCC32)CC1 (centres unmarked)       log10 of IC50         2.66

* * *

biological target: h5-HT transporter (Homo sapiens); construct: Human platelet membranes (Oceanix Biosciences Corporation, Hanover, Md., USA) were thawed; tissue Oceanix Biosciences Corporation, Hanover, Md., USA; host or cells: human platelet membranes; assay: Radioligand binding experiment for 5-HT transporter ([3H]paroxetine, human platelet membranes); details: human platelet membranes; [3H]paroxetine 0.5 nM; read-out: 5HTT pIC50 (converted)
Under this convention, YES denotes IC50 strictly below 30 nM and NO denotes IC50 at or above 30 nM.

> print(dat)
                                   molecule  label
1  COc1ccc2c(c1)C1=NOC(CN3CCN(CC(C)=Cc4ccccc4)CC3)C1CO2 (stereo not shown)    YES
2  COc1cc2c(cc1OC)C1=NOC(CN3CCN(Cc4ccc5ccccc5n4)CC3)C1CO2 (stereo not shown)     NO
3  COc1ccc2c(c1)CCC1C2=NOC1CN1CCN(CC=Cc2ccccc2)CC1 (stereo not shown)     NO
4  COC(=O)Oc1cc2c(cc1OC)C1=NOC(CN3CCN(C/C(C)=C/c4ccccc4)CC3)C1CO2 (single isomer, unassigned)     NO
5  COc1cc2c(cc1OC)C1=NOC(CN3CCN(CC=C(C)c4ccccc4)CC3)C1CN2 (stereo not shown)     NO
6  COc1cc2c(cc1OC)C1=NOC(CN3CCN(Cc4ccccc4)CC3)C1CO2 (stereo not shown)     NO

* * *

target: h5-HT transporter (Homo sapiens); construct: Human platelet membranes (Oceanix Biosciences Corporation, Hanover, Md., USA) were thawed; tissue Oceanix Biosciences Corporation, Hanover, Md., USA; host or cells: human platelet membranes; experiment: Radioligand binding experiment for 5-HT transporter ([3H]paroxetine, human platelet membranes); details: human platelet membranes; [3H]paroxetine 0.5 nM
Using 5HTT pIC50 as the sorting value, the categories are class 0: < 7; class 1: ≥ 7 and < 8; class 2: ≥ 8

> print(dat)
                                    compound    label
 1  COc1cc2c(cc1OS(C)(=O)=O)OCC1C2=NOC1CN1CCN(CC(C)=Cc2ccccc2)CC1 (single isomer, unassigned) [Compound 346]  class 2
 2  COc1cc2c(cc1Cl)C1=NOC(CN3CCN(CC(C)=Cc4ccccc4)CC3)C1CO2 (centres unmarked) [Compound 246]  class 1
 3  CC(=Cc1ccccc1)CN1CCN(CC2ON=C3c4ccc(OC5CCCC5)cc4OCC32)CC1 (centres unmarked) [Compound 243]  class 0
 4  CN1CC2C(=NOC2CN2CCN(Cc3ccc4ccccc4c3)CC2)c2ccccc21 (centres unmarked) [Compound 266]  class 2
 5  CC(=Cc1ccccc1)CN1CCN(CC2ON=C3c4ccccc4NCC32)CC1 (centres unmarked) [Compound 234]  class 1
 6  CC(=O)Oc1ccc2c(c1)OCC1C2=NOC1CN1CCN(CC=Cc2ccccc2)CC1 (centres unmarked) [Compound 233]  class 1
 7  C(=Cc1ccccc1)CN1CCN(CC2ON=C3c4cc5c(cc4OCC32)OCC5)CC1 (racemic) [Compound 279]  class 1
 8  COc1cc2c(cc1SC)OCC1C2=NOC1CN1CCN(CC(C)=Cc2ccccc2)CC1.O=C(O)C(F)(F)F (racemic) [Compound 350]  class 1
 9  COc1cc2c(cc1OC(C)=O)C1=NOC(CN3CCN(CC(C)=Cc4ccccc4)CC3)C1CO2 (centres unmarked) [Compound 257]  class 1
10  COc1cc2c(cc1OC)C1=NOC(CN3CCN(CC(C)=Cc4ccccc4)CC3)C1CN2 (single isomer, unassigned) [Compound 253]  class 0
11  COc1cc2c(cc1OC)C1=NOC(CN(C)C3CCN(Cc4ccc5ccccc5c4)CC3)C1CO2 (racemic) [Compound 281]  class 1
12  O=C(N1CC2C(=NOC2CN2CCN(CC=Cc3ccccc3)CC2)c2ccccc21)C(F)(F)F (centres unmarked) [Compound 224]  class 1

Hey, just so you know, these numbers are from patent US7169786B2.
